System: T1, full-length mouse CD70 with C-terminal V5 tag (mouse, UniProt O55237 1-195)
T1 construct: On transfected CHO cells; also called murine CD70
T1 sequence: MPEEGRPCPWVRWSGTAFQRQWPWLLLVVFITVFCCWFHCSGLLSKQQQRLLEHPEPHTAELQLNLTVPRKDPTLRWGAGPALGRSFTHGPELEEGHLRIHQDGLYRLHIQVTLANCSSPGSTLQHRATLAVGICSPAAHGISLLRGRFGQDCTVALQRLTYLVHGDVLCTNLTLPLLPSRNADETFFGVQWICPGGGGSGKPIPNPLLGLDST
Assay info: FACS on CHO cells, periplasmic scFv
Measure name: binding result

Binder | Assay result
CD70-51 (scFv, As m32) scFv: QVQLQESGPGLVKPSETLSLTCTVSGGSVSTDGYYWSWIRQPPGKGLEWIGYIYYSGSTNYNPSLKSRVTISVDTSKNQFSLKLSSVTAADTAVYYCARGIGLGFEYWGQGTLVTVSSGGGGSGGGGSGGGGSSYVLTQLTSVSVAPGQTARITCGGNNIGSKSVHWYQQKPGQAPVLVVYDDSDRPSGIPERFSGSNSGNTATLTISRVEAGDEADFYCQVWDRSSDQDVVFGGGTKLTVL | no binding
CD70-3 (scFv, As m32) scFv: QEQLVESGGGVVQPGRSLRLSCAASGFTFSSYGMHWVRQAPGKGLEWVAVTWYDGSNKYYGDSVKGRFTISRDNSKNTLYLQMNSLRAEDTAVYYCARDLLRGVKGYAMDVWGQGTTVTVSSGGGGSGGGGSGGGGSEIVLTQSPGTLSLSPGERATLSCRASQSLRRIYLAWYQQKPGQAPRLLIYDVFDRATGIPDRFSGGGSGTDFTLTISRLEPEDFAVYYCQQYSDSPFTFGPGTKVDIK | no binding
CD70-62 (scFv, As m32) scFv: EVQLVESGGGLVKPGGSLRLSCAASGFTFSSYSMNWVRQAPGKGLEWVSYISSSGGYIYYADSVKGRFTISRDNAKNSLYLQMNSLRAEDAAVYYCSRGDYSNYAYFDYWGQGTLVTVSSGGGGSGGGGSGGGGSDIQMTQSPSSLSASVGDRVTITCRASQGISNYLAWYQQKPGKVPKLLIYAASTLQSGVPSRFSGSGSGTDFTLTISSLQAEDVAVYYCQQYYSTPLTFGGGTKVEIK | no binding
